# Test system: DU-145 prostate
# assay_protocol: NCI tumour cell line growth inhibition, 48 h
parameter: TGI (µM)
Numbers only, in µM.

>>> numeric_readout("COc1ccc2c(c1)C(=O)c1c-2c(N2CCN(C(=O)CNCCN(C)C)CC2)nc2ccccc12")
13.3
>>> numeric_readout("CC(C)(C)OC(=O)n1c(Cl)c(C=O)c2ccccc21")
39.6
>>> numeric_readout("CCOC(=O)c1ccccc1SC(C[N+](=O)[O-])c1ccccc1 (configuration not stated)")
18.4
>>> numeric_readout("OC1(c2ccc(Cl)cc2)c2c(c3ccccc3c3ccccc23)C2=NCCN21 (configuration not stated)")
45.6
>>> numeric_readout("Fc1cccc(Cl)c1Cn1c(-c2c(F)cccc2Cl)nc2ccccc21")
56.1

List the reported TGI of each molecule below.
1. CC(C)C1=C(Cc2ccccc2)C(=O)O/C1=C\c1ccc(O)c(Cl)c1
2. C=C(C)[C@@H]1CC[C@]2(C(=O)O)CC[C@]3(C)[C@H](CC[C@@H]4[C@@]5(C)C/C(=C/c6cccc(I)c6)C(=O)C(C)(C)[C@@H]5CC[C@]43C)[C@@H]12

1. 32.4
2. 7.84

====

# Tested on: IGROV1 ovarian
# assay_protocol: NCI tumour cell line growth inhibition, 48 h
parameter: TGI (µM)
One number for each entry, in µM.

>>> numeric_readout("CCCCCCCCCCCC1=NC(C)(C)CN1CC(C)O (stereo not given)")
4.75

Now, please, on to the next compound.
For COc1ccc(N2N=NN(C(C)C)/C2=C(/Cl)c2nnnn2-c2ccc(OC)cc2)cc1 , what is its reported TGI?
28.7

====

# Tested on: TK-10 renal
# assay_protocol: NCI tumour cell line growth inhibition, 48 h
I'd appreciate it if you could supply TGI values for the items below.
Give bare numbers, in µM.

List the reported TGI of each molecule below.
1. COc1ccc(/C=N\NC(=O)c2ccc3nc(-c4ccc(Cl)cc4)[nH]c3c2)cc1
2. COc1cc(-c2nc(-c3ccc(-c4nc5ccc(F)cc5[nH]4)cc3)no2)cc(OC)c1OC

[6.59, 34.1]

====

# System: UACC-62 melanoma
# assay_protocol: NCI tumour cell line growth inhibition, 48 h
parameter: TGI (µM)
One number for each entry, in µM.

List the reported TGI of each compound below.
1. O=C1/C(=C/c2ccc(Cl)cc2)CN(C(=O)CCN2CCC(=NO)CC2)C/C1=C\c1ccc(Cl)cc1
2. OC1(c2ccc(Cl)cc2)c2c(c3ccccc3c3ccccc23)C2=NCCN21 (configuration not stated)
3. O=C(c1ccccc1)c1c(C(F)(F)F)n([O-])c2cc(F)c(F)cc2[n+]1=O
4. Cn1cnc(SC2=C3C(=O)C=C4S[C@H]5C[C@]42c2c(c(O)c4c6c2=[N+]3CCC=6C=N4)N5)c1CC(N)C(=O)O (some centres not stated)
5. CCN(CC)C1Oc2cc3c(cc2C(c2cccc(OC)c2O)C1C)OCO3 (configuration not stated)

1: 1.72; 2: 32; 3: 5.08; 4: 29.2; 5: 28.5

====

# Test system: HCC-2998 colon
# assay_protocol: NCI tumour cell line growth inhibition, 48 h
parameter: GI50

Solved entries (count: 3):
>>> result("CC(=O)Nc1ccc(-c2csc(Nc3cccc(-c4csc(-c5ccccc5)n4)c3)n2)cc1")
"12500 nM"
>>> result("O=C1/C(=C/c2ccc(Cl)cc2)CN(C(=O)CCN2CCC(=NO)CC2)C/C1=C\\c1ccc(Cl)cc1")
"699 nM"
>>> result("O=C(Nc1ccc(Nc2ccncc2)cc1)c1ccc(Nc2ccnc3ccc([N+](=O)[O-])cc23)cc1[N+](=O)[O-]")
"32900 nM"

List the reported GI50 of each compound below.
1. Cc1ccc2nc3c(n2c1)C(=O)C(=O)c1ccccc1-3
2. Cc1cc(NCc2cc(Nc3ccnc4cc(Cl)ccc34)ccc2F)nc(N2CCSCC2)n1
3. COc1ccc(/C=N\NC(=O)c2ccc3nc(-c4ccc(Cl)cc4)[nH]c3c2)cc1

1: 707 nM; 2: 1960 nM; 3: 2570 nM

Sourced from PubChem BioAssay (NCI)
